# Organism: Homo sapiens
# protocol-details: Selectivity index, ratio of inhibition for PI3Kalpha (unknown origin) to inhibition for PI3K p120 gamma (unknown origin) using phosphatidylinositol 4,5-bisphosphate as substrate in presence of ATP incubated for 60 mins by ADP-Glo assay
Use 500 as the dividing line for Selectivity ratio, with the line itself on the Condition met side and lower values as Condition not met.

{"columns": ["smiles-input", "category-label"],
 "data": [
  ["Cc1cc(-c2cnc3[nH]cc(-c4ccc(C(=O)O)cc4)c3c2)cc2c1C(=O)N([C@@H](C)C1CC1)C2", "Condition not met"],
  ["Cc1cc(-c2cnc3[nH]cc(-c4ccc(C(=O)O)c(F)c4)c3c2)cc2c1C(=O)N([C@@H](C)C1CC1)C2", "Condition met"],
  ["Cc1cc(-c2cnc3[nH]cc(-c4ccc(C5(C(=O)O)CC5)cc4)c3c2)cc2c1C(=O)N([C@@H](C)C1CC1)C2", "Condition met"],
  ["Cc1cc(-c2c[nH]c3ncc(-c4cc(C)c5c(c4)CN([C@@H](C)C4CC4)C5=O)cc23)ccc1CC(=O)O", "Condition met"],
  ["Cc1cc(-c2c[nH]c3ncc(-c4cc(C)c5c(c4)CN([C@@H](C)C4CC4)C5=O)cc23)cc(C)c1C(=O)O", "Condition met"],
  ["Cc1cc(-c2cnc3[nH]cc(-c4ccncc4)c3c2)cc2c1C(=O)N(CC(F)(F)F)C2", "Condition not met"],
  ["C[C@@H](C1CC1)N1Cc2cc(-c3cnc4[nH]cc(-c5cnn(C)c5)c4c3)cc(Cl)c2C1=O", "Condition not met"]
]}

###

# Organism: Homo sapiens
# protocol-details: Selectivity index, ratio of inhibition for PI3Kalpha (unknown origin) to inhibition for PI3K p120 gamma (unknown origin) using phosphatidylinositol 4,5-bisphosphate as substrate in presence of ATP incubated for 60 mins by ADP-Glo assay

{"columns": ["smiles-input", "lt-gt-eq", "Selectivity ratio"],
 "data": [
  ["CNC(=O)c1cc(-c2cnc3[nH]cc(-c4cnn(C)c4)c3c2)cc2c1C(=O)N([C@@H](C)C1CC1)C2", "=", 1050],
  ["Cc1cc(-c2cnc3[nH]cc(-c4ccccn4)c3c2)cc2c1C(=O)N([C@@H](C)C1CC1)C2", ">", 308],
  ["Cc1cc(-c2cnc3[nH]cc(-c4ccncc4)c3c2)cc2c1C(=O)N(C(C)(C)C)C2", "=", 62],
  ["Cc1cc(-c2cnc3[nH]cc(C(=O)NC4CCOCC4)c3c2)cc2c1C(=O)N([C@@H](C)C1CC1)C2", ">", 2240],
  ["Cc1cc(-c2cnc3[nH]cc(-c4ccc(C(=O)O)c(C(F)(F)F)c4)c3c2)cc2c1C(=O)N([C@@H](C)C1CC1)C2", "=", 380],
  ["Cc1cc(-c2cnc3[nH]cc(-c4ccc(C#N)cc4)c3c2)cc2c1C(=O)N([C@@H](C)C1CC1)C2", ">", 242]
]}

###

In this section we review reported Selectivity ratio values for a set of molecules.
# Species: Homo sapiens
# protocol-details: Selectivity index, ratio of inhibition for PI3Kdelta (unknown origin) to inhibition for PI3K p120 gamma (unknown origin) using phosphatidylinositol 4,5-bisphosphate as substrate in presence of ATP incubated for 60 mins by ADP-Glo assay
endpoint-label: Selectivity ratio

{"columns": ["smiles-input", "endpoint-label", "lt-gt-eq", "measured-number"],
 "data": [
  ["Cc1cc(-c2cnc3[nH]cc(C(=O)O)c3c2)cc2c1C(=O)N([C@@H](C)C1CC1)C2", "Selectivity ratio", ">", 775],
  ["Cc1cc(-c2cnc3[nH]cc(-c4ccc(C(=O)O)cc4)c3c2)cc2c1C(=O)N([C@@H](C)C1CC1)C2", "Selectivity ratio", "=", 136],
  ["C[C@@H](C1CC1)N1Cc2cc(-c3cnc4[nH]cc(-c5cnn(C)c5)c4c3)cc(S(=O)(=O)N(C)C)c2C1=O", "Selectivity ratio", "=", 159],
  ["Cc1cc(-c2cnc3[nH]cc(-c4ccncc4)c3c2)cc2c1C(=O)N(C(C)(C)C1CC1)C2", "Selectivity ratio", "=", 100],
  ["Cc1cc(-c2cnc3[nH]cc(-c4ccc(C(=O)O)c(C5CC5)c4)c3c2)cc2c1C(=O)N([C@@H](C)C1CC1)C2", "Selectivity ratio", "=", 494],
  ["Cc1cc(-c2cnc3[nH]cc(-c4ccnc(C(F)(F)F)c4)c3c2)cc2c1C(=O)N([C@@H](C)C1CC1)C2", "Selectivity ratio", ">", 552],
  ["Cc1cc(-c2cnc3[nH]cc(-c4cccc(C(=O)O)c4)c3c2)cc2c1C(=O)N([C@@H](C)C1CC1)C2", "Selectivity ratio", "=", 772],
  ["Cc1cc(-c2cnc3[nH]cc(-c4ccc(C(N)=O)cc4)c3c2)cc2c1C(=O)N([C@@H](C)C1CC1)C2", "Selectivity ratio", "=", 226],
  ["COc1cc(-c2c[nH]c3ncc(-c4cc(C)c5c(c4)CN([C@@H](C)C4CC4)C5=O)cc23)ccc1C(=O)O", "Selectivity ratio", "=", 494],
  ["CC(C)c1cc(-c2cnc3[nH]cc(-c4cnn(C)c4)c3c2)cc2c1C(=O)N([C@@H](C)C1CC1)C2", "Selectivity ratio", "=", 1380],
  ["Cc1cc(-c2cnc3[nH]cc(-c4ccc(CC(=O)O)cc4)c3c2)cc2c1C(=O)N([C@@H](C)C1CC1)C2", "Selectivity ratio", "=", 872],
  ["C[C@@H](C1CC1)N1Cc2cc(-c3cnc4[nH]cc(-c5cnn(C)c5)c4c3)cc(C(F)(F)F)c2C1=O", "Selectivity ratio", "=", 266],
  ["Cc1cc(-c2cnc3[nH]cc(-c4ccc(C(C)(C)O)nc4)c3c2)cc2c1C(=O)N([C@@H](C)C1CC1)C2", "Selectivity ratio", "=", 183],
  ["C[C@@H](C1CC1)N1Cc2cc(-c3cnc4[nH]cc(-c5cnn(C)c5)c4c3)cc(S(C)(=O)=O)c2C1=O", "Selectivity ratio", "=", 289],
  ["Cc1cc(-c2cnc3[nH]cc(-c4ccncc4)c3c2)cc2c1C(=O)N(C(C)(C)C)C2", "Selectivity ratio", "=", 107],
  ["Cc1cc(-c2cnc3[nH]cc(C(=O)NC4CCOCC4)c3c2)cc2c1C(=O)N([C@@H](C)C1CC1)C2", "Selectivity ratio", "=", 1030],
  ["C[C@@H](C1CC1)N1Cc2cc(-c3cnc4[nH]cc(-c5cnn(C)c5)c4c3)cc(NS(C)(=O)=O)c2C1=O", "Selectivity ratio", "=", 615],
  ["COc1cc(-c2cnc3[nH]cc(-c4cnn(C)c4)c3c2)cc2c1C(=O)N([C@@H](C)C1CC1)C2", "Selectivity ratio", "=", 365],
  ["CNC(=O)c1cc(-c2cnc3[nH]cc(-c4cnn(C)c4)c3c2)cc2c1C(=O)N([C@@H](C)C1CC1)C2", "Selectivity ratio", ">", 1180],
  ["Cc1cc(-c2cnc3[nH]cc(-c4ccc(C(C)(C)C(=O)O)cc4)c3c2)cc2c1C(=O)N([C@@H](C)C1CC1)C2", "Selectivity ratio", "=", 968],
  ["Cc1cc(-c2cnc3[nH]cc(-c4cc(C)c(C(=O)O)c(C5CC5)c4)c3c2)cc2c1C(=O)N([C@@H](C)C1CC1)C2", "Selectivity ratio", "=", 367],
  ["Cc1cc(-c2cnc3[nH]cc(-c4ccc(C(=O)O)c(C(C)C)c4)c3c2)cc2c1C(=O)N([C@@H](C)C1CC1)C2", "Selectivity ratio", "=", 344],
  ["Cc1cc(-c2cnc3[nH]cc(-c4ccnc(N)c4)c3c2)cc2c1C(=O)N([C@@H](C)C1CC1)C2", "Selectivity ratio", "=", 640],
  ["Cc1cc(-c2cnc3[nH]cc(-c4ccc(C(=O)O)c(F)c4)c3c2)cc2c1C(=O)N([C@@H](C)C1CC1)C2", "Selectivity ratio", "=", 1050],
  ["CC[C@@H](C1CC1)N1Cc2cc(-c3cnc4[nH]cc(-c5ccncc5)c4c3)cc(C)c2C1=O", "Selectivity ratio", ">", 414],
  ["Cc1cc(-c2c[nH]c3ncc(-c4cc(C)c5c(c4)CN([C@@H](C)C4CC4)C5=O)cc23)cc(C)c1C(=O)O", "Selectivity ratio", "=", 1210]
]}
